measured.target: Protein translocase subunit SecA (Escherichia coli (strain K12))
experiment.notes: Assay to Identify E. coli SecA ATPase Inhibitors
Assay type: functional
Parameters: scale not given: direction of the effect not stated beside the values
experimental.conditions: 30 µM
Potency and affinity values are given separately.
measure.name: Percent Effect (%)
Unit % implied. Number only.

Would you please look over these solved cases?
Bench note: what Percent Effect did c1cc(NC2CC3(CCN(Cc4cc[nH]n4)C3)C2)ncn1 (stereo unspecified) show?
-3.9

Queued: c1ccc(CN2C[C@@H]3CCCO[C@@H]3[C@H](Nc3ccccn3)C2)nc1
-6.38

Queued: COc1cccc(CCNCc2c(C)nn(C)c2N(C)C)c1
-3.25

Queued: Cc1noc([C@@H]2C[C@H]3CN(Cc4cc(C)on4)C[C@H]3O2)n1
-0.923

Queued: COc1cccc([C@@H]2CCN(Cc3ccc4ccccc4n3)C[C@H]2O)c1
-6.38

***
Bench note: what Percent Effect did CN(C)C(=O)COC[C@H]1CC[C@@H]2[C@@H](CCN2Cc2ccccn2)O1 show?
1.44

Queued: c1ccc(N2CCCC3(CCN(Cc4cccs4)C3)C2)nc1 (stereo unspecified)
-7.4

Queued: CCC(O)CN1CCN(C(=O)Cc2cc(Cl)ccc2OC)CC1 (stereo unspecified)
1.11

Queued: O=C(C1CC(=O)N(c2ccccc2Br)C1)N1CCC2(CC1)OCCO2 (stereo unspecified)
-3.76

Queued: c1cncc(COC[C@H]2CC[C@H]3[C@H](CCN3Cc3cccs3)O2)c1
-1.85

Queued: Cc1ccc(N2CCO[C@H]3CN(CC4CC4)C[C@H]32)nn1
-4.5

###

Percent Effect reference
measured.target: Aspartate--tRNA(Asp/Asn) ligase (Mycobacterium tuberculosis (strain ATCC 25618 / H37Rv)); also: in the data most compounds retested in dose-response had high values
experiment.notes: Assay for Asp RNA synthetase-1 from Mycobacterium tuberculosis
Assay type: functional
Design: scale not given: direction of the effect not stated beside the values
experimental.conditions: 30 µM
Unit % implied. Number only.

Would you please look over these solved cases?
Bench note: what Percent Effect did Cc1ccc(F)cc1NC(=O)NCC(C)N1CCOCC1 (stereo not drawn) show?
-1.14

Queued: Cc1ncccc1OC1(C(=O)NCCCN2CCOCC2)CCNCC1
1.19

Queued: Cn1cc(C2CCCN2C(=O)c2ccc(Br)o2)cn1 (stereo not drawn)
-1.8

Queued: Cc1ccc(-c2nc(CN3CCN(S(=O)(=O)N(C)C)CC3)cs2)o1
2.34

Queued: O=C(NC1CC(=O)N(Cc2cccc(F)c2)C1)c1ccncc1 (stereo not drawn)
0.413

***
Bench note: what Percent Effect did Cn1cc(CNC2CCCN(Cc3noc(C4CC4)n3)C2)cn1 (stereo not drawn) show?
-1.26

Queued: Cc1cnn(CC2CCCCN2C(=O)c2cc(C(N)=O)cs2)c1 (stereo not drawn)
-2.6

Queued: CCOCCN1CCN(Cc2nc(C3CC3)no2)CC1CC (stereo not drawn)
-4.28

Queued: Cc1noc(C)c1C1CCCN1C(=O)CN1CC2(CCNCC2)OC1=O (stereo not drawn)
-0.658

Queued: Cc1cc(CN(C)C(=O)c2ccc(F)cc2Br)no1
0.189

Queued: COc1ccc(CNCC2CC2)cc1F
2.55

Queued: c1cnnc(N2CCCC2CNc2nc3ccccc3o2)c1 (stereo not drawn)
-3.6

Queued: CC(NC(=O)NCC1(c2ccccc2)CCC1)c1nncn1C (stereo not drawn)
0.759

Queued: CC(C)C(=O)NCC(=O)N(C)C1CCCN(CCc2ccccc2)C1 (stereo not drawn)
-0.948

Queued: CCc1c(C(=O)NCC2CCS(=O)(=O)C2)cnn1-c1ccc(C)cc1 (stereo not drawn)
-1.8

Queued: O=C(c1cncc(N2CCC3(CCNCC3)CC2)n1)N1CCCC1
-3.85

Queued: O=C(NS(=O)(=O)c1ccccc1Cl)c1cccc2c1OCCO2
-6.15

Queued: CCC[C@@H]1CN(S(=O)(=O)c2ccc(C)c(F)c2)C[C@H]1N(C)C
0.149

Queued: O=C(Cn1nc(-c2cccs2)ccc1=O)N1CCCCCC1
1.6

Queued: CC(C)Oc1ccc(CSc2nnc(CN3CCCC3=O)o2)cc1
-7.23

Queued: Cc1ccc(SCC2CNc3nc4ccccc4c(=O)n32)c(C)c1 (stereo not drawn)
0.0228

Queued: CN(CCO)Cc1nnc(C2CCN(C(=O)C(C)(C)C)CC2)n1C
3.14

Queued: O=C(Nc1ccccc1F)N1CCN(Cc2noc(C3CC3)n2)CC1
1.99

Queued: CC1c2ncc(Cn3cncn3)n2CCN1C1CCOCC1 (stereo not drawn)
2.5

Queued: Cc1oc(C)c(C(=O)NCc2cccc(NC(=O)CN(C)C)c2)c1C
-5.4

Queued: COc1cccc2c1OCC(NC(=O)NCc1cccs1)C2 (stereo not drawn)
1.53

Queued: Cc1nn(C)c(Cl)c1CNCc1cccnc1N1CCOCC1
-7.19

Queued: CC(O)CN1CCN(C(=O)c2cccn2Cc2ccncc2)CC1 (stereo not drawn)
-3.51

Queued: CN(Cc1cc[nH]n1)C(=O)c1cccc(CCC(C)(C)O)c1
-0.264
